Hello, the source for this data is patent US9198918B2, in case you need it.

pEC50: recorded values
Tested on: KPL4
assay-info: CellTiter-Glo cell proliferation assay, KPL4
Format: cell-based
condition-notes: Breast, mutation status PI3K
pEC50 field: float, defined as -log10 of concentration (mol/L).

A selection of reference data follows.
{"columns": ["compound", "pEC50"],
 "data": [
  ["Cc1nc(-c2cn3c(n2)-c2ccc(-c4cnn(CCO)c4)cc2OCC3)n(C(C)C)n1 [compound 186]", 7.06],
  ["CC(C)n1ncnc1-c1cn2c(n1)-c1ccc(-c3cn(CCO)cn3)cc1OCC2 [compound 207]", 5.87],
  ["CC(C)n1ncnc1-c1cn2c(n1)-c1ccc(-c3cnn(CC(C)(C)O)c3)cc1OCC2 [compound 180]", 7.41]
]}

Read the next record carefully.
Tell us which pEC50 value is on record for Cc1nc(-c2cn3c(n2)-c2ccc(-c4cnn(C(C)(C)C(N)=O)c4)cc2OCC3)n(C(C)C)n1 [compound 196] 7.80

###

System: H2122
assay-info: CellTiter-Glo cell proliferation assay, H2122
Type: cell-based
condition-notes: Homo sapiens, NCI-H2122, Lung(NSCLC), mutation status K-RAS
property-measured: EC50 (nM)
Numeric answer only, unit nM assumed.

{"columns": ["smiles-entry", "property-measured", "recorded-number"],
 "data": [
  ["CC(C)n1ncnc1-c1cn2c(n1)-c1ccc(-c3cnn(CC(C)(C)O)c3)cc1OCC2", "EC50", 515]
]}

Read the next record carefully.
Tell us which EC50 value is on record for Cc1nc(-c2cn3c(n2)-c2ccc(-c4cnn(CCO)c4)cc2OCC3)n(C(C)C)n1 2950

###

Test system: KM12
assay-info: CellTiter-Glo cell proliferation assay, KM12
Format: cell-based
condition-notes: Homo sapiens, Colon, mutation status PTEN
property-measured: EC50

Tell us which EC50 value is on record for CC(C)n1ncnc1-c1cn2c(n1)-c1ccc(-c3cn(CCO)cn3)cc1OCC2 ≥ 10 µM

###

Test system: MCF7
assay-info: CellTiter-Glo cell proliferation assay, MCF7
Assay type: cell-based
condition-notes: Homo sapiens, Breast, mutation status PI3K
property-measured: pEC50
pEC50 field: float, defined as -log10 of concentration (mol/L).

Tell us which pEC50 value is on record for CC(C)n1ncnc1-c1cn2c(n1)-c1ccc(-c3cnn(CC(C)(C)O)c3)cc1OCC2 6.92

###

System: H520
assay-info: CellTiter-Glo cell proliferation assay, H520
Type: cell-based
condition-notes: Homo sapiens, NCI-H520, Lung(NSCLC), mutation status PTEN
property-measured: EC50 (nM)
Numeric answer only, unit nM assumed.

Tell us which EC50 value is on record for CC(C)n1ncnc1-c1cn2c(n1)-c1ccc(-c3cn(CCO)cn3)cc1OCC2 1290

###

Each entry below carries its measured pIC50, system: UniProt P42336.
Sequence (P42336 whole entry): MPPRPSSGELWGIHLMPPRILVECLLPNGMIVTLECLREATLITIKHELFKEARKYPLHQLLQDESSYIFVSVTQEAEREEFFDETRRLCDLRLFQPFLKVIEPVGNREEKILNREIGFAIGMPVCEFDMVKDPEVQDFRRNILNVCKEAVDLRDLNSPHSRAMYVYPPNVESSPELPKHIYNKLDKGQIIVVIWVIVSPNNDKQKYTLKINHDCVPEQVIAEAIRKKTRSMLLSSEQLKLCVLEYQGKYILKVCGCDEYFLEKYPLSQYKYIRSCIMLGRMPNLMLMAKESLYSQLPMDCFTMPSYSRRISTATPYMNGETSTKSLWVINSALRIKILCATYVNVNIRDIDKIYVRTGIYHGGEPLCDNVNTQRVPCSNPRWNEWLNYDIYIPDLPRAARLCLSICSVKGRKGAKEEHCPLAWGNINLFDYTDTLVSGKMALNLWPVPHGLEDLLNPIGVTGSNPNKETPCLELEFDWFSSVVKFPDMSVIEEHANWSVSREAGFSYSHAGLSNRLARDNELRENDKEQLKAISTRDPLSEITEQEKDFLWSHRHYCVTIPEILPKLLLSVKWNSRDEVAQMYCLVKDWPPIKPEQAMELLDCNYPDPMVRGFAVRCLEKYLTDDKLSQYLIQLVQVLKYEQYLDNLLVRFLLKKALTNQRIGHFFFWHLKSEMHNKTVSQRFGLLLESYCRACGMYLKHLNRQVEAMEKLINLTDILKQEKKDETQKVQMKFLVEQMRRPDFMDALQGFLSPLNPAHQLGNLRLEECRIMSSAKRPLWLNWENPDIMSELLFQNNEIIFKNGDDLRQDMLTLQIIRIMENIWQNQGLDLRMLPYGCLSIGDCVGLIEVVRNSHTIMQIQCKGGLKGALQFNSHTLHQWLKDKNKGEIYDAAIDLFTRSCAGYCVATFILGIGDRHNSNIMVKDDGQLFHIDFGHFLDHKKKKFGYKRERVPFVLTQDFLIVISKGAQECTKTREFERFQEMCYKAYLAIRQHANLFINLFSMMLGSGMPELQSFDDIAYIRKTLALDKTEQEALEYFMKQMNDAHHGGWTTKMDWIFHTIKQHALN
Sequence (P27986 whole entry partner): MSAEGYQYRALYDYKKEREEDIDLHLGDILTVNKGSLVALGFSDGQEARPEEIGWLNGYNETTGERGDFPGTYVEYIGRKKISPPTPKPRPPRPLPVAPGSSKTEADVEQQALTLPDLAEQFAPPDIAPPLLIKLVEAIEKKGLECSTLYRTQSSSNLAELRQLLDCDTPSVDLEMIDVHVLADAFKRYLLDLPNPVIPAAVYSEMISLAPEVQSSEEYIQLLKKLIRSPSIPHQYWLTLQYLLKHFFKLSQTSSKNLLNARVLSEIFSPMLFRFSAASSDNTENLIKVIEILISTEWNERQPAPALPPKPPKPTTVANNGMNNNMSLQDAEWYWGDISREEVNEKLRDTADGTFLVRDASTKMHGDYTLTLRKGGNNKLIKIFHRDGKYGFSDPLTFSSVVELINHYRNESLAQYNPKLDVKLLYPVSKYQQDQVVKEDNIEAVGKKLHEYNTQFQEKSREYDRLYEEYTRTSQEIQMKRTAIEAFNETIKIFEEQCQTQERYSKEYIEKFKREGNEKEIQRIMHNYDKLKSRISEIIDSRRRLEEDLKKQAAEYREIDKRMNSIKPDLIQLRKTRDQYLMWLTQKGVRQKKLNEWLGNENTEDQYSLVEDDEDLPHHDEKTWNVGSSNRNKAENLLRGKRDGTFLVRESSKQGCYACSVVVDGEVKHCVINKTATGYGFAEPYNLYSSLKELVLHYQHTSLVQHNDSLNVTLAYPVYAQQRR
pIC50 field: float, defined as -log10 of concentration (mol/L).

{"columns": ["compound", "pIC50"],
 "data": [
  ["Fc1ccc(-n2ncnc2-n2cc3c(n2)-c2ccc(Br)cc2OCC3)c(F)c1 [compound 103]", 7.24]
]}

Tell us which pIC50 value is on record for CC(C)n1ncnc1-c1cc2n(n1)-c1cc(C3CN(C(C)(C)CO)C3)ccc1OCC2 [compound 170] 7.66

Tell us which pIC50 value is on record for Clc1ccccc1-n1ncnc1-n1cc2c(n1)-c1cc(C3CCNCC3)ccc1OCC2 [compound 154] 9.04

Tell us which pIC50 value is on record for Cc1nc(-c2cn3c(n2)-c2ccc(-c4cnn(C(C)(C)C(=O)O)c4)cc2OCC3)n(C(C)C)n1 [compound 251] 8.85

###

Test system: IGROV1
assay-info: CellTiter-Glo cell proliferation assay, IGROV1
Format: cell-based
condition-notes: Homo sapiens, IGROV-1, Ovarian, mutation status PI3K
property-measured: pEC50
pEC50 field: float, defined as -log10 of concentration (mol/L).

Tell us which pEC50 value is on record for CC(C)n1ncnc1-c1cn2c(n1)-c1ccc(-c3cnn(CC(C)(C)O)c3)cc1OCC2 7.22

###

System: LN229
assay-info: CellTiter-Glo cell proliferation assay, LN229
Assay type: cell-based
condition-notes: Homo sapiens, LN-229, Glioma, mutation status PI3K
property-measured: EC50 (nM)
Numeric answer only, unit nM assumed.

Enter EC50 (test system LN229) for CC(C)n1ncnc1-c1cn2c(n1)-c1ccc(-c3cnn(CC(C)(C)O)c3)cc1OCC2 869

###

System: HCC1954
assay-info: CellTiter-Glo cell proliferation assay, HCC1954
Format: cell-based
condition-notes: Homo sapiens, Breast, mutation status PI3K
Protocol: Efficacy of Formula I compounds was measured by a cell proliferation assay employing the following protocol (Promega Corp. Technical Bulletin TB288; Mendoza et al (2002) Cancer Res. 62:5485-5488): 1. […] 7. The plate was incubated at room temperature for 10 minutes to stabilize the luminescence signal. 8. Luminescence was recorded and reported in graphs as RLU=relative luminescence units. […]
EC50: recorded values
Numeric answer only, unit nM assumed.

A selection of reference data follows.
{"columns": ["compound", "tgt", "property-measured", "recorded-number"],
 "data": [
  ["CC(C)n1ncnc1-c1cn2c(n1)-c1ccc(-c3cn(CCO)cn3)cc1OCC2 [compound 207]", "HCC1954", "EC50", 3390],
  ["Cc1nc(-c2cn3c(n2)-c2ccc(-c4cnn(C(C)(C)C(N)=O)c4)cc2OCC3)n(C(C)C)n1 [compound 196]", "HCC1954", "EC50", 128],
  ["Cc1nc(-c2cn3c(n2)-c2ccc(-c4cnn(CCO)c4)cc2OCC3)n(C(C)C)n1 [compound 186]", "HCC1954", "EC50", 420]
]}

Tell us which EC50 value is on record for CC(C)n1ncnc1-c1cn2c(n1)-c1ccc(-c3cnn(CC(C)(C)O)c3)cc1OCC2 [compound 180] 168

###

Test system: RKO
assay-info: CellTiter-Glo cell proliferation assay, RKO
Assay type: cell-based
condition-notes: Homo sapiens, Colon, mutation status PI3K
property-measured: pEC50
pEC50 field: float, defined as -log10 of concentration (mol/L).

Tell us which pEC50 value is on record for CC(C)n1ncnc1-c1cn2c(n1)-c1ccc(-c3cnn(CC(C)(C)O)c3)cc1OCC2 5.60

###

System: TOV21GX1
assay-info: CellTiter-Glo cell proliferation assay, TOV21GX1
Format: cell-based
condition-notes: Ovarian, mutation status PI3K/PTEN
property-measured: EC50
Note to self: number, then unit, no commentary.

Tell us which EC50 value is on record for CC(C)n1ncnc1-c1cn2c(n1)-c1ccc(-c3cnn(CC(C)(C)O)c3)cc1OCC2 3.59 µM
